List of MFI values.
Target: T1, human TMEM106B (human, UniProt Q9NUM4 2-274)
T1 construct: Full-length, on transiently transfected HEK293 cells, or natively expressed on HeLa, U251 and A549 cells; also called huTMEM106B; huTMEM
Experiment: FACS HEK+huTMEM, 1.0 ug/ml
Form rule: numeric answer, no unit written next to it.

anti-TMEM106B antibody TM-48 (antibody, V domains shown) VH: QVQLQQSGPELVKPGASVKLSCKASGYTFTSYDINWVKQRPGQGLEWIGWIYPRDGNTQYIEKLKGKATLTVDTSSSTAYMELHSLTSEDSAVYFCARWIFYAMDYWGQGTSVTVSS VL: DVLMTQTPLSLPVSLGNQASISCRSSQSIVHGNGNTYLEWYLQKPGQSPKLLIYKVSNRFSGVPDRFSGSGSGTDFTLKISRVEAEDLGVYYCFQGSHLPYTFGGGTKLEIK
39900
anti-TMEM106B antibody TM-6 (antibody, V domains shown, mouse IgG from hybridoma) VH: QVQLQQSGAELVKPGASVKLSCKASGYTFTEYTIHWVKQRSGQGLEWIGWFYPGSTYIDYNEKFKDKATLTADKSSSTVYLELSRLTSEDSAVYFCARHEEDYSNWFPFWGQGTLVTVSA VL: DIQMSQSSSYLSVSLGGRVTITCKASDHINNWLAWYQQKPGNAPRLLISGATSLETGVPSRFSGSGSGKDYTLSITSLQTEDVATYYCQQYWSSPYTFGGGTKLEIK
393

stdin: Which MFI reading was recorded for the binder anti-TMEM106B antibody TM-9 (antibody, V domains shown) VH: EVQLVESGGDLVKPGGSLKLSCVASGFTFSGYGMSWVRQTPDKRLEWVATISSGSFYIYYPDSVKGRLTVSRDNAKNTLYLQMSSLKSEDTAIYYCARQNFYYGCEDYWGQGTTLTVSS VL: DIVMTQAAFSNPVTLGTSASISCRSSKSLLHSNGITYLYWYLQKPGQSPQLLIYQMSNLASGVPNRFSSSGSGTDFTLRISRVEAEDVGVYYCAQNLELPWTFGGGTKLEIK ?
stdout: 62100

The values you see were collected from patent US20230303681A1.
